# System: NCI-H23 lung
# Assay protocol: NCI tumour cell line growth inhibition, 48 h
The entries below are paired with their reported TGI.

| Compound | Study system | Units of measure | Reading qualifier | TGI |
| --- | --- | --- | --- | --- |
| CC1(C)C[C@H]2C3=CC[C@@H]4[C@@]5(C)CC[C@H](O)C(C)(C)[C@@H]5CC[C@@]4(C)[C@]3(C)C[C@@H](O)[C@@]23C[C@@H]1OC3=O | NCI-H23 lung | µM | > | 100 |
| O=S(=O)(NCCNc1cc(-c2cn(-c3ccccc3)nc2-c2cccc(O)c2)ccn1)c1ccc(F)cc1 | NCI-H23 lung | µM | = | 10.8 |
| CN1CCN(Cc2ccc(NC(=O)c3[nH]ncc3Nc3ccnc4ccsc34)cc2)CC1 | NCI-H23 lung | µM | = | 6.64 |
| C/C=C/C/C=C/CCC(=O)C1OC1C(N)=O (stereo not given) | NCI-H23 lung | µM | = | 28.2 |
| Cc1ccc(NC(=O)/C(=N/NC(=O)CC#N)C2C(=O)N(c3ccccc3)N=C2N)cc1C (stereo not given) | NCI-H23 lung | µM | > | 100 |
| CCOC(=O)c1c(-c2ccc(Cl)cc2)c(C#N)c(=S)n(C2OC(CO)C(O)C(O)C2O)c1-c1ccccc1 (stereo not given) | NCI-H23 lung | µM | = | 72.7 |
| BrC12C3C4C5C(C(C43)C13OCCO3)C52 (stereo not given) | NCI-H23 lung | µM | > | 100 |
| Cc1nc(Nc2ccccc2)sc1C(=O)NNC(N)=O | NCI-H23 lung | µM | > | 100 |
| COC1=CC(C)C2C[C@H]3O[C@H](O)C[C@H]4C(C)C(=O)C(O)C([C@@]2(C)C1=O)[C@@]34C (stereo not given in full) | NCI-H23 lung | µM | > | 100 |
| O=C(O)C(Cc1ccccc1)N1C(=O)c2ccccc2C1=O (stereo not given) | NCI-H23 lung | µM | > | 100 |

Reference source: PubChem BioAssay (NCI)
